B1: HDV Ribozyme (parent)
chain: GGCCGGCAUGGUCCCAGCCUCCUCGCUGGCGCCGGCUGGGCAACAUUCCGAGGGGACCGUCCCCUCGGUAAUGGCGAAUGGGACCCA

Variants of: B1
Assay: self-cleavage, relative activity (ratio to wild type); higher = more cleavage; co-transcriptional
READOUT_LABEL: self-cleavage
The answer should be a number; do not append a unit.

Dear colleague, I am looking for the recorded self-cleavage of the following variant: GGCCGGCAUGGUCCCAGCCUCCUCGCUGGCGCCGCCUGGGCAACAUUCCGAGGGGGCCGUCCCCUCGGUAAUGGCGAAUGGGACCCA [G35C A56G] 0.128

Reported self-cleavage, variant GGCCGGCAUGGCCCCAGCCUCCUCGCUGGCGCUGGCUGGGCAACAUUCCGAGGGGACCGUCCCCUCGGUAAUGGCGAAUGGGACCCA [U12C C33U] : ____ 0.32

Name the recorded self-cleavage for GGCCGGCAUGGUCCUAGCCUCCUCGCUGGCGCCGGCUGGGCAACAUUCCGAGCGGACCGUCCCCUCGGUAAUGGCGAAUGGGACCCA [C15U G53C] . 0.956

# lookup: self-cleavage of GGCCGGCAUGGUCCCAGCCUCCUCGCUGGCGCCGGCUGGGCAACAUCCCGAGGGGACCGCCCCCUCGGUAAUGGCGAAUGGGACCCA [U47C U60C] 1.05

Reported self-cleavage for GGCCGGCAUGGUCCCAGCCUCCUCGCUGGCGCCGACUGGGCAACAUACCGAGGGGACCGUCCCCUCGGUAAUGGCGAAUGGGACCCA [G35A U47A] : what is it? 0.466

I'd like to know its self-cleavage. The variant in question is GGCCGGCAUGGUCCCAGCCUCCUCGCUGGCGCCGGCUGGGCCACAUUCCGAGGGGACCGUCACCUCGGUAAUGGCGAAUGGGACCCA [A42C C62A] 0.365

Value lookup for self-cleavage; key = GGCAGGCAUGGUCCCAGCCUCCUCGCUGGCGCCGGCUGGGCAACAUUCCGAGGGGACCGUCCCCUCGGUAAUGGCGAAUGGGACACA [C4A C85A] 0.346

Entry under review: GGCCGGCAUGGUCCCAGCCUCCUCGCUCGCACCGGCUGGGCAACAUUCCGAGGGGACCGUCCCCUCGGUAAUGGCGAAUGGGACCCA [G28C G31A] . Reported self-cleavage? 0.0739

Fill in the blank: the reported self-cleavage of GGCCGGCAUAGUCCCAGCCUCCUCGCUGGCGCCGGCUGGGCAACAUUCCGAAGGGACCGUCCCCUCGGUAAUGGCGAAUGGGACCCA [G10A G52A] is ____. 0.749

What value of self-cleavage has been reported for the following variant? GGCCGGCAUGGUCGCAGCCUCCUCGCUGGCGCCGGCCGGGCAACAUUCCGAGGGGACCGUCCCCUCGGUAAUGGCGAAUGGGACCCA [C14G U37C] 0.646

What value of self-cleavage has been recorded for this entry: GGCCGGCAUGGUCCCGGCCUCCUCGCUGGCGCCGGCUGGGCAACAUUCCGAGAGGACCGUCCCCUCGGUAAUGGCGAAUGGGACCCA [A16G G53A] 1.04

I would be grateful if you could share the reported self-cleavage for GGCGGGCAUGGUCCCAGACUCCUCGCUGGCGCCGGCUGGGCAACAUUCCGAGGGGACCGUCCCCUCGGUAAUGGCGAAUGGGACCCA [C4G C18A] . 0.0287

Recorded self-cleavage of GGCCGGCAUGGUCCCAGCCUCCUCGCUGGCUCCGGCUGGGCAACAUUCCGAGGGGACAGUCCCCUCGGUAAUGGCGAAUGGGACCCA [G31U C58A] , please. 0.35

Give the measured self-cleavage of GGCCGGCAUGGUCCCUGCCUCCUCGCUGGCGCCGGCUGGGCAACAUUCCGAGGGGACCGUACCCUCGGUAAUGGCGAAUGGGACCCA [A16U C61A] . 1.11

Which self-cleavage value belongs to GGCCGGCAUGGUCCCAGCCUCCUCGCUGGCUCCGGCGGGGCAACAUUCCGAGGGGACCGUCCCCUCGGUAAUGGCGAAUGGGACCCA [G31U U37G] ? 0.107

// query self-cleavage value for entry GGCCGGCAUGGUCCCAGCCUCCUCGCUGGCGCCGGCAGGGCAACAUUCCGACGGGACCGUCCCCUCGGUAAUGGCGAAUGGGACCCA [U37A G52C] 0.213

Would you mind telling me what self-cleavage value was observed for GGCCGGCAUGGUCCCAGCCUCCUCGCCGGCGCCGGCUGGGCAACAUUCUGAGGGGACCGUCCCCUCGGUAAUGGCGAAUGGGACCCA [U27C C49U] ? 0.617

Record request: self-cleavage value, item GGCCGGCAUGGUCCCAGCCUCCUCGCUGGCUCCGGCUGGGCAACAUUCCGAGGGGACCGUACCCUCGGUAAUGGCGAAUGGGACCCA [G31U C61A] 0.38

Which self-cleavage value belongs to GACCGGCAUGGUCCCAGCCUCCUGGCUGGCGCCGGCUGGGCAACAUUCCGAGGGGACCGUCCCCUCGGUAAUGGCGAAUGGGACCCA [G2A C24G] ? 0.0378

GET /values?readout=self-cleavage&item= GGCCGGCAUGGUCCCAGCCUCCUCGCUGGCGCCGGCUGGGCAACAUUCCGAGGGGACCUUCCCCUCGGUAAUGGAGAAUGGGACCCA [G59U C75A] 0.0314

Requested read-out: self-cleavage. Entry: GGCCGGCAUGGUCCCAGCCUCCUCGCUGGCGCCGGCUGGGCAACAUUCCGAGGGUACCGUCCCCUGGGUAAUGGCGAAUGGGACCCA [G55U C66G] 0.901

Need self-cleavage, item GGCCGGCAUGGUCCCAGCCUCCUCGCUGGCGCCGGCUGGGCAACAUUCCGAGGGGACCGUCCCCUCGCUACUGGCGAAUGGGACCCA [G68C A71C] 0.554
